Measured values drawn from paper PMC4376724 for this set.

System: PBMC from HLA-A*02:01 Chagas disease patients and healthy donors
ASSAY NOTES: Cytokine secretion test (Bio-Plex multiplex immunoassay) in PBMC supernatants
Format: cell-based, human
MEASUREMENT CONDITIONS: PBMC of subject HD 006; 1 μM peptide, 30 h; non-peptide control subtracted
MEASUREMENT NAME: TNFα (pg/mL)
// units = pg/mL; emit number, no label

1. ALRNLRVFL [TcCA-2_607-615]
5
2. AAAGDKLSL [TcCA-2_273-281]
2
3. TVFDASRSTV [TcCA-2_442-451]
2

// next entry
Q. Check the records and state TNFα for ALQVTNHRYL [TcCA-2_657-666]
A. 1

====

Test system: PBMC from HLA-A*02:01 Chagas disease patients and healthy donors
ASSAY NOTES: Cytokine secretion test (Bio-Plex multiplex immunoassay) in PBMC supernatants
Assay type: cell-based, human
MEASUREMENT CONDITIONS: PBMC of subject HD 001; 1 μM peptide, 30 h; non-peptide control subtracted
The following sequences are listed with their measured IL6 values.
The reply must contain the numeric value and, after it, the unit.

// below: answered sequences
1. ALRNLRVFL [TcCA-2_607-615]
-6 pg/mL
2. ALQVTNHRYL [TcCA-2_657-666]
1 pg/mL
3. AAAGDKLSL [TcCA-2_273-281]
1 pg/mL

// next entry
Q. Check the records and state IL6 for TVFDASRSTV [TcCA-2_442-451]
A. 18 pg/mL

====

Tested on: PBMC from HLA-A*02:01 Chagas disease patients and healthy donors
ASSAY NOTES: Granzyme B ELISPOT in PBMC
Type: cell-based, human
MEASUREMENT CONDITIONS: PBMC of subject HD 006, 1 μM peptide, 30 h, non-peptide control spots subtracted
MEASUREMENT NAME: GzB (SFC/10^6)
// units = SFC/10^6; emit number, no label

// below: answered sequences
1) TVFDASRSTV [TcCA-2_442-451]
-7
2) ALRNLRVFL [TcCA-2_607-615]
7
3) ALQVTNHRYL [TcCA-2_657-666]
0

// next entry
Q. Send back PBMC from HLA-A*02:01 Chagas disease patients and healthy donors GzB of AAAGDKLSL [TcCA-2_273-281] only.
A. -7

====

System: PBMC from HLA-A*02:01 Chagas disease patients and healthy donors
ASSAY NOTES: Cytokine secretion test (Bio-Plex multiplex immunoassay) in PBMC supernatants
Type: cell-based, human
MEASUREMENT CONDITIONS: PBMC of subject HD 008; 1 μM peptide, 30 h; non-peptide control subtracted
MEASUREMENT NAME: IL6 (pg/mL)
// units = pg/mL; emit number, no label

1) AAAGDKLSL [TcCA-2_273-281]
9
2) ALRNLRVFL [TcCA-2_607-615]
22
3) TVFDASRSTV [TcCA-2_442-451]
31

// next entry
Q. Send back PBMC from HLA-A*02:01 Chagas disease patients and healthy donors IL6 of ALQVTNHRYL [TcCA-2_657-666] only.
A. 3

====

The following sequences are listed with their measured TNFα values.
System: PBMC from HLA-A*02:01 Chagas disease patients and healthy donors
ASSAY NOTES: Cytokine secretion test (Bio-Plex multiplex immunoassay) in PBMC supernatants
Format: cell-based, human
MEASUREMENT CONDITIONS: PBMC of subject HD 005; 1 μM peptide, 30 h; non-peptide control subtracted

// below: answered sequences
1) AAAGDKLSL [TcCA-2_273-281]
-11 pg/mL
2) ALRNLRVFL [TcCA-2_607-615]
-2 pg/mL
3) TVFDASRSTV [TcCA-2_442-451]
-1 pg/mL

Q. Check the records and state TNFα for ALQVTNHRYL [TcCA-2_657-666]
A. -4 pg/mL

====

The following sequences are listed with their measured GzB values.
System: PBMC from HLA-A*02:01 Chagas disease patients and healthy donors
ASSAY NOTES: Granzyme B ELISPOT in PBMC
Format: cell-based, human
MEASUREMENT CONDITIONS: PBMC of subject HD 001, 1 μM peptide, 30 h, non-peptide control spots subtracted
// units = SFC/10^6; emit number, no label

// below: answered sequences
1. AAAGDKLSL [TcCA-2_273-281]
1
2. TVFDASRSTV [TcCA-2_442-451]
0
3. ALRNLRVFL [TcCA-2_607-615]
0

// next entry
Q. Check the records and state GzB for ALQVTNHRYL [TcCA-2_657-666]
A. 0

====

Tested on: PBMC from HLA-A*02:01 Chagas disease patients and healthy donors
ASSAY NOTES: Granzyme B ELISPOT in PBMC
Assay type: cell-based, human
MEASUREMENT CONDITIONS: PBMC of subject HD 004, 1 μM peptide, 30 h, non-peptide control spots subtracted
The following sequences are listed with their measured GzB values.
// units = SFC/10^6; emit number, no label

1) AAAGDKLSL [TcCA-2_273-281]
0

Q. Check the records and state GzB for ALRNLRVFL [TcCA-2_607-615]
A. -7

Q. Check the records and state GzB for ALQVTNHRYL [TcCA-2_657-666]
A. -7

Q. Check the records and state GzB for TVFDASRSTV [TcCA-2_442-451]
A. 0

====

Tested on: PBMC from HLA-A*02:01 Chagas disease patients and healthy donors
ASSAY NOTES: Cytokine secretion test (Bio-Plex multiplex immunoassay) in PBMC supernatants
Format: cell-based, human
MEASUREMENT CONDITIONS: PBMC of patient IND 388; 1 μM peptide, 30 h; non-peptide control subtracted
Experimental: For the screening of the recognition of TcCA-2 epitopes by Chagas disease patients, 10 HLA-A*02:01 adult patients in the asymptomatic phase of the disease (IND) were enrolled. For cytotoxicity, functional activity determinations and phenotypic characterization another group of 19 HLA-A*02:01 adults Chagas disease patients and 9 healthy donors were analyzed. […]
MEASUREMENT NAME: IL6 (pg/mL)
// units = pg/mL; emit number, no label

// below: answered sequences
1. AAAGDKLSL [TcCA-2_273-281]
36
2. ALRNLRVFL [TcCA-2_607-615]
32
3. TVFDASRSTV [TcCA-2_442-451]
21

Q. Check the records and state IL6 for ALQVTNHRYL [TcCA-2_657-666]
A. 2

====

System: PBMC from HLA-A*02:01 Chagas disease patients and healthy donors
ASSAY NOTES: Cytokine secretion test (Bio-Plex multiplex immunoassay) in PBMC supernatants
Format: cell-based, human
MEASUREMENT CONDITIONS: PBMC of subject HD 005; 1 μM peptide, 30 h; non-peptide control subtracted
The following sequences are listed with their measured IL6 values.
// units = pg/mL; emit number, no label

1. AAAGDKLSL [TcCA-2_273-281]
-183
2. ALRNLRVFL [TcCA-2_607-615]
-77
3. ALQVTNHRYL [TcCA-2_657-666]
-58

// next entry
Q. Check the records and state IL6 for TVFDASRSTV [TcCA-2_442-451]
A. 16

====

The following sequences are listed with their measured % maximal stabilization values.
TARGET OF ASSAY: HLA-A*02:01 (Homo sapiens, UniProt P04439, D140Y/D185E/D98H/E176V/E277Q/G131W/G231S/I119V/I121R/I166T/I218V/L300P/L318F/N151K/N90K/P208A/P217A/Q86G/Q94H/R138H/R169H/T345S)
ASSAY NOTES: HLA-A*02:01 binding assay (surface stabilization on TAP-deficient T2 cells)
MEASUREMENT CONDITIONS: different peptide concentrations in duplicate, serum-free RPMI, overnight at room temperature, PE anti-HLA-A2 (BB7.2) flow cytometry, referred to 25 μM HB-ENV335-343 peptide

// below: answered sequences
1) AIGGGKLPAL [TcCA-2_531-540]
20.89%
2) SILQNVHATL [TcCA-2_489-498]
36.02%

// next entry
Q. Check the records and state % maximal stabilization for SAFGNHASTV [TcCA-2_550-559]
A. 19.07%
